Recorded values, source patent US20220281976A1.

Property: Kd; scope: individual binders
biological target: T1, human CD33 Fc fusion protein (human, UniProt P20138 18-259); assay: ForteBio BLI or MSD-SET, IgG, avid;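 note: Anti-CD33 IgG affinity by BLI, IgG captured on AHQ sensors with antigen in solution and a one-to-one kinetic fit, or by MSD solution equilibrium titration with quadratic fit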
T1 construct: also called hCD33-Fc; human CD33/Fc chimera (R&D Systems)
T1 sequence (P20138 18-259 limits assumed): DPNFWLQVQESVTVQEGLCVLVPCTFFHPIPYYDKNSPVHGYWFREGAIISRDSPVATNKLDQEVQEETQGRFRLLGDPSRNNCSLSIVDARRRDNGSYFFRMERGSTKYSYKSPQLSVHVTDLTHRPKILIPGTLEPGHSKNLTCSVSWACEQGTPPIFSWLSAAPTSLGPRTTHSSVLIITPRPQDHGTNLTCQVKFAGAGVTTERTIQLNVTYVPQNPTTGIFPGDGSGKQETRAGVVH
// note: answer is a bare numeric in nM

Would you please look over these solved cases?
* C-65 (antibody, V domains shown, human IgG1) VH: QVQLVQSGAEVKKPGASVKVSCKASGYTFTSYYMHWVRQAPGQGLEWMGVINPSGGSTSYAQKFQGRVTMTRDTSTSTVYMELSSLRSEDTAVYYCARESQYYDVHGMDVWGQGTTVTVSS VL: DIQMTQSPSSLSASVGDRVTITCRASQSISSYLNWYQQKPGKAPKLLIYAASSLQSGVPSRFSGSGSGTDFTLTISSLQPEDFATYYCQQQYTLPPTFGGGTKVEIK | 1.62
* C-34 (antibody, V domains shown, human IgG1) VH: EVQLVESGGGLVQPGGSLRLSCAASGFTFSSYWMSWVRQAPGKGLEWVANINQDGSEKYYVDSVKGRFTISRDNAKNSLYLQMNSLRAEDTAVYYCARDHGATGPDFDLWGRGTLVTVSS VL: DIQMTQSPSSLSASVGDRVTITCRASQSISSYLNWYQQKPGKAPKLLIYGASSLQSGVPSRFSGSGSGTDFTLTISSLQPEDFATYYCQQQYLTPLTFGGGTKVEIK | 1.21
* C-56 (antibody, V domains shown, human IgG1) VH: EVQLVESGGGLVQPGGSLRLSCAASGFTFSSYWMSWVRQAPGKGLEWVANIKQDGSEKYYVDSVKGRFTISRDNAKNSLYLQMNSLRAEDTAVYYCARDYGSVAGTPFDYWGQGTLVTVSS VL: DIQMTQSPSSLSASVGDRVTITCRASQSISSYLNWYQQKPGKAPKLLIYAASSLQSGVPSRFSGSGSGTDFTLTISSLQPEDFATYYCQQVLHTPLTFGGGTKVEIK | 1.1
* C-91 (antibody, V domains shown, human IgG1) VH: EVQLVESGGGLVQPGGSLRLSCAASGFTFSSYWMSWVRQAPGKGLEWVANIKSDGSEKYYVDSVKGRFTISRDNAKNSLYLQMNSLRAEDTAVYYCARDVGGDYSGSDLASYWGQGTLVTVSS VL: DIQMTQSPSSLSASVGDRVTITCRASQSISSYLNWYQQKPGKAPKLLIYAASSLQSGVPSRFSGSGSGTDFTLTISSLQPEDFATYYCQQGYDPPLTFGGGTKVEIK | 1.2
* C-39 (antibody, V domains shown, human IgG1) VH: QLQLQESGPGLVKPSETLSLTCTVSGGSISSSSYYWGWIRQPPGKGLEWIGSIYYSGSTYYNPSLKSRVTISVDTSKNQFSLKLSSVTAADTAVYYCAREGVRGMDVWGQGTTVTVSS VL: EIVLTQSPGTLSLSPGERATLSCRASQSVSSSYLAWYQQKPGQAPRLLIYGASSRATGIPDRFSGSGSGTDFTLTISRLEPEDFAVYYCQQFAFLPPTFGGGTKVEIK | 2.06

Asked: Using known records, supply Kd for C-88 (antibody, V domains shown, human IgG1) VH: QLQLQESGPGLVKPSETLSLTCTVSGGSISSSSYYWGWIRQPPGKGLEWIGSIYYSGSTYYNPSLKSRVTISVDTSKNQFSLKLSSVTAADTAVYYCARLPIYYDSSGYFDYHGMDVWGQGTTVTVSS VL: EIVLTQSPATLSLSPGERATLSCRASQSVSSYLAWYQQKPGQAPRLLIYDASNRATGIPARFSGSGSGTDFTLTISSLEPEDFAVYYCQQHANHPPTFGGGTKVEIK
Given back: 0.734

Asked: // Input: C-23 (antibody, V domains shown, human IgG1) VH: QVQLQESGPGLVKPSETLSLTCAVSGYSISSGYYWGWIRQPPGKGLEWIGTIYHSGSTYYNPSLKSRVTISVDTSKNQFSLKLSSVTAADTAVYYCAREVGVVGALPYFDYWGQGTLVTVSS VL: DIQMTQSPSSLSASVGDRVTITCRASQSISSYLNWYQQKPGKAPKLLIYGASSLQSGVPSRFSGSGSGTDFTLTISSLQPEDFATYYCQQASSSPPTFGGGTKVEIK . Output its Kd only.
Given back: 3.39

Asked: Recall and state the measured Kd for C-63 (antibody, V domains shown, human IgG1) VH: QVQLVQSGAEVKKPGSSVKVSCKASGGTFSSYAISWVRQAPGQGLEWMGSIIPIFGTANYAQKFQGRVTITADESTSTAYMELSSLRSEDTAVYYCARDLGGQYYGSHHYWGQGTLVTVSS VL: EIVLTQSPATLSVSPGERATLSCRASQSVGSNLAWYQQKPGQAPRLLIYGASTRATGIPARFSGSGSGTEFTLTISSLQSEDFAVYYCQQYNAWPLTFGGGTKVEIK .
Given back: 4.01

Asked: Give reported Kd value for C-3 (antibody, V domains shown, human IgG1) VH: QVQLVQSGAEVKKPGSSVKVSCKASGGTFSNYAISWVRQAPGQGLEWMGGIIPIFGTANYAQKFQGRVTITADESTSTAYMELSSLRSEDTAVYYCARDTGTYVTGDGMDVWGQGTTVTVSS VL: EIVMTQSPATLSVSPGERATLSCRASQSVSSNLAWYQQKPGQAPRLLIYGASTRATGIPARFSGSGSGTEFTLTISSLQSEDFAVYYCQQYDVWPITFGGGTKVEIK
Given back: 1.11

Asked: Please report Kd for the following binder: C-25 (antibody, V domains shown, human IgG1) VH: EVQLVESGGGLVQPGGSLRLSCAASGFTFSSYWMSWVRQAPGKGLEWVANIKSDGSEKYYVDSVKGRFTISRDNAKNSLYLQMNSLRAEDTAVYYCAREGFRDGINWFDPWGQGTLVTVSS VL: DIQMTQSPSSLSASVGDRVTITCRASQSISRYLNWYQQKPGKAPKLLIYAASSLQSGVPSRFSGSGSGTDFTLTISSLQPEDFATYYCQQQFLTPITFGGGTKVEIK
Given back: 1.85
